I'd be grateful if you could share measured relative growth for these entries.
test: Staphylococcus aureus RN4220 growth blockers – two temperatures, LtaS inhibitor project, primary screen (AID 720641); settings: S. aureus RN4220 growth, OD600, 20 h, 42 °C; measured here: growth at 30 °C; stronger effect = lower value
Hit rate of the full screen: of about 170,000 compounds, about 900 (0.53%) were called active. This is one part of a sample in which actives are shown more often than they occur.
Numeric only. Scale: %

Suppose we examine the compound CN(C(=O)c1cccnc1Cl)C1CCS(=O)(=O)C1 (stereo not drawn) ; what relative growth value has been reported? 88.3

Here is the next compound: CCN1CCCC1CNC(=O)c1nnc(Cc2ccccc2OC)o1 (stereo not drawn) 88.3

Here is the next compound: Cc1cc(C)c(NC(=O)CSC2=NN3CCCC(=O)N=C3S2)c(C)c1 89
